Hello, the source for this data is patent US6638936B1, in case you need it.

assayed.target: 5-HT4 receptor (Homo sapiens, UniProt Q13639)
Sequence (Q13639 whole entry): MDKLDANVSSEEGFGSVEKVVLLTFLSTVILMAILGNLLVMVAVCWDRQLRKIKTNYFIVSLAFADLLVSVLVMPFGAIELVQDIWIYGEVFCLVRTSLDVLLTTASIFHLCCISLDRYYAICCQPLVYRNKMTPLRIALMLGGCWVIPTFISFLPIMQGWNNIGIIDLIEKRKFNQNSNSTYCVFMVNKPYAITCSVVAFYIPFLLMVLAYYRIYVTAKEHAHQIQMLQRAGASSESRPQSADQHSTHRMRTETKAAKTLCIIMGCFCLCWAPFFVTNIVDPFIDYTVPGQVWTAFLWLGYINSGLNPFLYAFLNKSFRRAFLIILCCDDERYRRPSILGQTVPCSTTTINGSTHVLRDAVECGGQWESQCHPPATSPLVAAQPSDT
property: Ki (nM)
Give the number; nM is assumed, so skip it.

// query Look at this molecule and give its reported Ki. C[C@H]1CN(c2ccc(C(F)(F)F)c3ccoc23)CCN1.O=C(O)/C=C/C(=O)O [Example 1, fumarate]
// result 977

====

assayed.target: UniProt:P41595
Sequence (P41595 whole entry): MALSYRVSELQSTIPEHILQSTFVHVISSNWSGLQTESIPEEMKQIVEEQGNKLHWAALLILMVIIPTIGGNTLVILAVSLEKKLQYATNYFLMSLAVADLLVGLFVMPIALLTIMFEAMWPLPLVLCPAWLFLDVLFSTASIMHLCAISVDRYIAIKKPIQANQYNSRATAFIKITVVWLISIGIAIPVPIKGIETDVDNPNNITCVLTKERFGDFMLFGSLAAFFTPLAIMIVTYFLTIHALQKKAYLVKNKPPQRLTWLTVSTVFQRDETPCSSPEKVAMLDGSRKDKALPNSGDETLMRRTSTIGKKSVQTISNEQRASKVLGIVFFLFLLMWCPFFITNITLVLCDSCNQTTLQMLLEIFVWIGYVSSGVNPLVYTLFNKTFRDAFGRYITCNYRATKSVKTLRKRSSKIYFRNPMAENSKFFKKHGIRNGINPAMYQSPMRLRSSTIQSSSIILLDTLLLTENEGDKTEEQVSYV
experimental.details: Serotonergic receptor binding selectivity, 5-HT2b
property: Ki (nM)
Only the number, expressed in nM, is required.

// query Recorded Ki of C[C@H]1CN(c2ccc(C(F)(F)F)c3ccoc23)CCN1.O=C(O)/C=C/C(=O)O [Example 1, fumarate] , please.
// result 177
